- system_name: Lanosterol synthase (Rattus norvegicus)
- test_summary: Percent inhibition of rat microsomal oxidosqualene cyclase-lanosterol synthase (OSC) at 100 nM
Item-by-item account of inhibition
API: value field is a number in %; no unit string.

INSERT INTO results (chemical_string, system_name, assay_endpoint, experimental_result) VALUES
  ('O=C(C1CCN(c2ccncc2F)CC1)N1CCN(S(=O)(=O)c2ccc(C(F)(F)F)cc2)CC1', 'Lanosterol synthase (Rattus norvegicus)', 'inhibition', 100),
  ('O=C(N1CCC(c2ccncc2)CC1)N1CCN(S(=O)(=O)c2ccc(Br)cc2)CC1', 'Lanosterol synthase (Rattus norvegicus)', 'inhibition', 94),
  ('O=C(N1CCN(c2ccncc2Cl)CC1)N1CCN(S(=O)(=O)c2ccc(F)cc2)CC1', 'Lanosterol synthase (Rattus norvegicus)', 'inhibition', 100);

q: Which inhibition is listed for O=C(N1CCN(c2ccncc2Cl)CC1)N1CCN(S(=O)(=O)c2ccc(Cl)cc2)CC1 ?
a: 87

q: Which inhibition is listed for O=C(C1CCN(c2ncncc2Br)CC1)N1CCN(S(=O)(=O)c2ccc(Br)cc2)CC1 ?
a: 47

q: Which inhibition is listed for O=C(C1CCN(S(=O)(=O)c2ccc(Br)cc2)CC1)N1CCC(c2ccncc2)CC1 ?
a: 100

q: Which inhibition is listed for O=C(N1CCC(c2ccncc2)CC1)N1CCN(S(=O)(=O)c2ccc(Cl)cc2)CC1 ?
a: 91

q: Which inhibition is listed for O=C(C1CCN(c2ccncc2Br)CC1)N1CCN(S(=O)(=O)c2ccc(Br)cc2)CC1 ?
a: 89

q: Which inhibition is listed for O=C(N1CCN(c2ccncc2Cl)CC1)N1CCN(S(=O)(=O)c2ccc(Br)cc2)CC1 ?
a: 100

q: Which inhibition is listed for O=C(N1CCC(c2ccncc2)CC1)N1CCN(S(=O)(=O)c2ccc(F)cc2)CC1 ?
a: 97

q: Which inhibition is listed for O=C(N1CCN(c2ccncc2Cl)CC1)N1CCN(S(=O)(=O)c2ccc(C(F)(F)F)cc2)CC1 ?
a: 100
